Biological target: T1, human GCGR (full-length glucagon receptor of 477 amino acids) (human, UniProt P47871 26-477)
T1 construct: Expressed from a full-length plasmid on CHO / CHO-K1 cells; also called hGCGR
T1 sequence (P47871 26-477 limits assumed): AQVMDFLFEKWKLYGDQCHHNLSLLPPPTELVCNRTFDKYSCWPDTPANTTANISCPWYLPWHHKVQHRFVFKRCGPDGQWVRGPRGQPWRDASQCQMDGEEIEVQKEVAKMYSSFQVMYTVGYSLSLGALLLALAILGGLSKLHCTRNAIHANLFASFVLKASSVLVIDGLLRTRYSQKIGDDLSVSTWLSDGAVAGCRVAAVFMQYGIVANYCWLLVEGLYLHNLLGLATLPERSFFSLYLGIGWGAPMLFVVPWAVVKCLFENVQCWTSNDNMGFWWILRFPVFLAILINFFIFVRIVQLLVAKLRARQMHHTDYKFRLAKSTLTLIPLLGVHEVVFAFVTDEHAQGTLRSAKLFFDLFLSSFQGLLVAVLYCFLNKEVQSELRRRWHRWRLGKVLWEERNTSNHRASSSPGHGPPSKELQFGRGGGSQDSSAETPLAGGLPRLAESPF
Test: competitive cell ELISA on GCGR-overexpressing CHO cells, biotin-labeled against unlabeled antibody; competitor hu1810-12
Quantity measured: competition efficiency IC %
Please format your answer as a value with the unit trailing.

Specify competition efficiency IC % for ch1805 (antibody, human IgG4 S228P, kappa, F234A L235A, V domains shown, IgG4-AA / kappa chimeric antibody; also called chimeric antibody of clone 1805) VH: EVQLQQSGPELVKPGASVKIPCKTSGYTFTDYNMDWVKQSHGRSLEWIGSIDPDNGGTIYNQKFKGKATLTVDKSSSTAYMELRSLTSEDTAVYYCTRDYYGSSSWFAYWGQGTLVTVSA VL: DVVMTQSPATLSVTPGDRVSLSCRASQSISDYLHWYQQKSHESPRLLIKYASQSISGIPSRFSGSGSGSDFTLSINSVEPEDVGVYYCQNGHSFPYTFGGGTKLEIKR and stop.
100%
